biological target: AF9 (497-568), recombinant C-terminal domain of human AF9 (human, UniProt P42568); assay: competitive SPR; peptide pre-incubated with AF9 (500 nM), over immobilised Mocr-DOT1L (826-1095)
pIC50: −log10 of the molar value.
MEASURED PARAMETER: pIC50

[[record]]
binder = "Ac-LPISIPLSTA-NH2 [V874A, alanine mutated DOT1L 10mer peptide]"
result = 6.15


[I] Ac-LPISIPLSAV-NH2 [T873A, alanine mutated DOT1L 10mer peptide]
[II] Ac-LPISIPLSTV-NH2 [DOT1L 10mer peptide, Ac-LPISIPLSTV-NH2 (a.a. 865-874)]
stdin: Identify the entry with the smaller pIC50: I or II . Selection: enter the item's label.
stdout: II
